B1: Protein piccolo, residues 1058 to 1114; numbered along this chain, Q9Y6V0 (parent)
chain: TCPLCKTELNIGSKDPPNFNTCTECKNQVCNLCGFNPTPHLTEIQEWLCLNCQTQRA

- Variants of: B1
- test summary: abundance fitness (aPCA) (normalised: wild type 0, dead -1); higher = more abundant; growth selection in yeast, the domain comes from the species named
- assay context: Homo sapiens
Hi there, I'd appreciate the recorded abundance fitness for every entry that follows.

Below, 6 variants whose answers are already recorded.
C49T ... -1.06
T54I ... -0.37
E24L ... -0.363
P17A ... -0.176
E8D ... -0.14
Q45G ... 0.037

Hi there! I need abundance fitness for each item below, if you can.
1. C33S
2. I44A

-0.646
-0.022

Quick request: abundance fitness for each listed item, please.
1. F35W
2. C22R
3. F19Y

1. -0.288
2. -0.484
3. 0.032
